Value source: patent US20180171001A1

assay_target: Env of HIV-1 strain 251-18 (HIV-1)
experimental_details: cell-based or functional assay
measurement_label: neutralization IC50 (µg/mL)
Unit µg/mL implied. Number only.

Data request: // returns reported neutralization IC50 for input γ59κ18 (antibody, V domains shown) VH: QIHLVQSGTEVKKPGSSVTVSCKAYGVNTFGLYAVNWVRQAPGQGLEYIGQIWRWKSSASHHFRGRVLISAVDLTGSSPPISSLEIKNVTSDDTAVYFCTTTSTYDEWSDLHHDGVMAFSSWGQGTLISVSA VL: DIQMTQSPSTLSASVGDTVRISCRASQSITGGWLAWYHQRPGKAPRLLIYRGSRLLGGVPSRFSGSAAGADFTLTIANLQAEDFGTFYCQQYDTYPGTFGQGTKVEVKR
Data returned: 25
